molecular target: VIM-1 (Pseudomonas aeruginosa (strain ATCC 15692 / DSM 22644 / CIP 104116 / JCM 14847 / LMG 12228 / 1C / PRS 101 / PAO1)); assay: biochemical; conditions: CCF2-FA substrate, 2 hours at 25° C
pIC50: −log10 of the molar value.
Each entry below carries its recorded pIC50.

{"columns": ["Compound", "pIC50"],
 "data": [
  ["Nc1nc2c(-c3ccc(S(=O)(=O)CCN4CCOCC4=O)c(S(N)(=O)=O)c3-c3nn[nH]n3)cccc2s1", 9.61],
  ["Cc1ccc(-c2ccc(S(=O)(=O)C3CNC3)c(S(N)(=O)=O)c2-c2nn[nH]n2)c2sc(N)nc12", 9.92],
  ["NC(=O)c1ccc(-c2ccc(S(=O)(=O)C3CNC3)c(S(N)(=O)=O)c2-c2nnn[nH]2)c(N)n1", 9.48],
  ["COC(=O)CNC(=O)c1nc2c(-c3ccc(S(=O)(=O)C4CNC4)c(S(N)(=O)=O)c3-c3nn[nH]n3)cccc2[nH]1", 9.46],
  ["Nc1nc2c(-c3ccc(S(=O)(=O)C4CNC4)c(S(N)(=O)=O)c3-c3nn[nH]n3)cccc2o1", 9.39],
  ["Nc1cnccc1-c1ccc(S(=O)(=O)C2CNC2)c(S(N)(=O)=O)c1-c1nnn[nH]1.O=C(O)C(F)(F)F [Example 105, 2,2,2-trifluoroacetate]", 9.12],
  ["Nc1nc2c(-c3ccc(S(=O)(=O)C4CNC4)c(S(N)(=O)=O)c3-c3nn[nH]n3)ccc(C(F)(F)F)c2s1", 9.76],
  ["Cn1c(N)nc2c(-c3ccc(S(=O)(=O)C[C@H](O)CN)c(S(N)(=O)=O)c3-c3nn[nH]n3)cccc21", 9.22],
  ["NCCNC(=O)c1ccccc1-c1ccc(S(=O)(=O)CCN)c(S(N)(=O)=O)c1-c1nn[nH]n1", 8.55],
  ["NS(=O)(=O)c1c(S(=O)(=O)C2CNC2)ccc(-c2cccc3[nH]c(C(=O)O)nc23)c1-c1nn[nH]n1", 9.53],
  ["N=C(N)c1nc2c(-c3ccc(S(=O)(=O)CCN)c(S(N)(=O)=O)c3-c3nn[nH]n3)cccc2s1", 9.85],
  ["NS(=O)(=O)c1c(S(=O)(=O)C2CNC2)ccc(-c2cccc3nccn23)c1-c1nnn[nH]1", 9.24],
  ["NCCS(=O)(=O)c1ccc(-c2ccnc3c2CCCC3)c(-c2nn[nH]n2)c1S(N)(=O)=O", 9.75],
  ["C[C@H](N)CS(=O)(=O)c1ccc(-c2cccc3[nH]c(N)nc23)c(-c2nn[nH]n2)c1S(N)(=O)=O", 9.65]
]}
